experiment: Phase 1 multiple ascending dose (MAD) study Part 1, healthy volunteers (PK and safety); details: LYT-100 750 mg BID with food
readout label: observed Cmax (ng/mL)
Numbers only; they are read as ng/mL.

observed Cmax in this record for O=C(O)c1ccc(=O)n(-c2ccccc2)c1 : 3370
